TGI for assorted compounds
Tested on: T-47D breast
Experiment: NCI tumour cell line growth inhibition, 48 h

Answered examples (8):
// query TGI value for entry COc1ccc(/C=C2\CCCC3=C2NC(C)=NC3c2ccc(OC)c(OC)c2)cc1OC (stereo unspecified)
> 100 µM

// query TGI value for entry `CC(C)N1CSC(=S)N(Cc2ccccc2)C1`
> 10 µM

// query TGI value for entry CCCCCCCCCCCC1N=C(N)NC(CCCO)=C1C(=O)OC (stereo unspecified)
17.5 µM

// query TGI value for entry `COc1ccc(/C=C(\NC(=O)c2ccccc2)C(=O)NN(C)c2ccnc3cc(Cl)ccc23)cc1OC`
> 100 µM

// query TGI value for entry CC(=O)Nc1ccc(N2C(=O)/C(=C\c3cccc(Oc4ccccc4)c3)SC2c2ccccc2)cc1 (stereo unspecified)
> 100 µM

// query TGI value for entry `O=C(O)c1cc2c(s1)C(=O)c1sccc1C2=O`
17.3 µM

// query TGI value for entry O=[N+]([O-])c1nccn1CC1OC(n2ccnc2[N+](=O)[O-])C(O)C(O)C1O (stereo unspecified)
> 100 µM

// query TGI value for entry CC1CC/C(=C\c2ccc(N(C)C)cc2)C(=O)/C1=C/c1ccc(N(C)C)cc1 (stereo unspecified)
> 100 µM

---
// query TGI value for entry C=C[C@]1(C)C=C2C(=O)[C@@]3(O)OC[C@@]4(CCCC(C)(C)C43O)C2(O)C(O)C1 (stereo partly specified)
2.43 µM

// query TGI value for entry `c1ccc2c(c1)CCN2CCc1c[nH]c2ccccc12`
> 10 µM

// query TGI value for entry `CO[C@@H](c1ccccc1)[C@H](O)[C@](O)(c1ccccc1)P(=O)(OC)OC`
> 100 µM

// query TGI value for entry `CN(C)c1ccc(/C=C/c2cc[n+](C)c3ccccc23)cc1`
16.6 µM

// query TGI value for entry `Fc1ccc(Nc2nc(NCCNc3ccnc4cc(Cl)ccc34)nc(N3CCOCC3)n2)cc1`
27.4 µM

// query TGI value for entry `CN(C)C(=C1c2cc([N+](=O)[O-])ccc2-c2ccc([N+](=O)[O-])cc21)N(C)C`
> 100 µM

====

TGI for assorted compounds
Test system: K-562 leukemia
Assay: NCI tumour cell line growth inhibition, 48 h

Answered examples (4):
// query TGI value for entry `O=C(NCCNCCO)N/N=C/c1ccc([N+](=O)[O-])cc1`
> 100 µM

// query TGI value for entry `COc1ccc(-c2ccc(/C=N/n3c(COc4ccc(Cl)cc4)n[nH]c3=S)o2)c([N+](=O)[O-])c1`
53.4 µM

// query TGI value for entry CC1=CC(=O)C(C(C)=Nc2ccccc2Cl)C(=O)O1 (stereo not given)
> 100 µM

// query TGI value for entry `COc1ccccc1-c1c(C)nn2c(NCc3ccccn3)cc(C)nc12`
> 50 µM

---
// query TGI value for entry `CSc1c(C(=O)Nc2ccc(Cl)cc2)c(N)[nH]c(=O)c1C#N`
> 100 µM

====

GI50 for assorted compounds
System: TK-10 renal
Assay: NCI tumour cell line growth inhibition, 48 h

Answered examples (5):
// query GI50 value for entry `O=c1oc2ccc(Cl)cc2c(=O)n1-c1ccc(I)cc1F`
0.605 µM

// query GI50 value for entry `Fc1ccc(Nc2nccc(-c3c(-c4ccc(C(F)(F)F)cc4)nn4ncccc34)n2)cc1F`
> 25 µM

// query GI50 value for entry `Nc1nc(OCc2ccccc2)nc2[nH]ncc12`
1.39 µM

// query GI50 value for entry `CCOC(=O)N1CCN(S(=O)(=O)c2oc(-c3ccc(Cl)cc3)nc2C#N)CC1`
1.8 µM

// query GI50 value for entry O=C(NN1C(=O)CSC1c1ccc(Cl)cc1)c1[nH]c2ccc(F)cc2c1-c1ccccc1 (configuration not stated)
2.31 µM

---
// query GI50 value for entry `CCOC(=O)c1c(C)n(Cc2ccc(Cl)cc2Cl)c2c1cc1oc(=O)c(=O)n3c(Cc4ccccc4)nc2c13`
2.64 µM

// query GI50 value for entry `CCc1c[nH]c2ncnc(N3CC[C@@](N)(CNC(=O)c4ccc(F)cc4F)C3)c12`
22.2 µM
